Origin of values: paper PMC5356633

# systemUnderTest: ERβ (estrogen receptor β) (Homo sapiens, UniProt Q92731)
# Sequence (Q92731 whole entry): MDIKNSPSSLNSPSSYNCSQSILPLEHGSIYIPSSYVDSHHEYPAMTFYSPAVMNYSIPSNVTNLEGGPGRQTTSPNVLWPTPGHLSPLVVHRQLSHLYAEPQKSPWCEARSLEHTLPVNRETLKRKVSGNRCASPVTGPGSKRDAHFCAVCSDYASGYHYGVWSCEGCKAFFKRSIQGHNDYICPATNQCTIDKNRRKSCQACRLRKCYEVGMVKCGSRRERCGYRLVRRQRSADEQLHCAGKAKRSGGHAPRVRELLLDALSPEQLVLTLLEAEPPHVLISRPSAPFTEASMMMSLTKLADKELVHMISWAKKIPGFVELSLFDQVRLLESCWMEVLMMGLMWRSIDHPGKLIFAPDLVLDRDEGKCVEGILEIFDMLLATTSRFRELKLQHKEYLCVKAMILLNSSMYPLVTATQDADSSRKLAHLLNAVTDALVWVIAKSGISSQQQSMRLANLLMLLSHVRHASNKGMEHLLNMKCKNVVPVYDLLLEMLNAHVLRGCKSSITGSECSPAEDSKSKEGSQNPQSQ
endpointName: IC50 (µM)
One number for each entry, in µM.

Find the measured IC50 of COc1cc(C[C@H]2C(=O)OC[C@@H]2Cc2ccc(OC)c(OC)c2)ccc1O and report it.
3.29
